Tested on: Escherichia coli
Test: Inhibition of Escherichia coli DNA topoisomerase IV using supercoiled pQE80L as substrate at 12.5 uM incubated for 30 mins by ethidium bromide staining-based agarose gel electrophoresis method
Calls of active or inactive are those of the source. The calls are words filed in the database; no cut-off is given here.

>  <substance-smiles>
CCn1cc(C(=O)O)c(=O)c2cnc(N3CCN(C(=S)Nc4cccc(C(F)(F)F)c4)CC3)nc21

>  <inhibition>
inactive

$$$$
>  <substance-smiles>
O=C(O)c1cn(C2CC2)c2cc(N3CCN(C(=S)Nc4ccc(C(F)(F)F)cc4)CC3)c(F)cc2c1=O

>  <inhibition>
inactive

$$$$
>  <substance-smiles>
CCn1cc(C(=O)O)c(=O)c2cnc(N3CCN(C(=O)Nc4ccccc4)CC3)nc21

>  <inhibition>
inactive

$$$$

###

Listed molecules paired with reported Ratio
Biological target: DNA gyrase (Escherichia coli) (UniProt P0AES6+P0AES4)
Assay: Inhibition of Escherichia coli DNA gyrase (A2B2 tetramer) assessed as Fraction supercoiled at 12.5 uM using relaxed pBR322 as substrate preincubated for 30 mins followed by enzyme addition by SYBR staining-based agarose gel electrophoresis method
Assay type: protein-complex assay
# print the numeric value only

Completed entries (count: 2):
>  <substance-smiles>
CCn1cc(C(=O)O)c(=O)c2cnc(N3CCN(C(=S)Nc4cccc(Cl)c4)CC3)nc21

>  <Ratio>
1.1

$$$$
>  <substance-smiles>
CCn1cc(C(=O)O)c(=O)c2cnc(N3CCN(C(=S)Nc4cccc(C(F)(F)F)c4)CC3)nc21

>  <Ratio>
1.1

$$$$

Lookup: Ratio / DNA gyrase (Escherichia coli) (UniProt P0AES6+P0AES4) / "CCn1cc(C(=O)O)c(=O)c2cnc(N3CCN(C(=O)Nc4ccccc4)CC3)nc21" 1.1

Lookup: Ratio / DNA gyrase (Escherichia coli) (UniProt P0AES6+P0AES4) / "O=C(O)c1cn(C2CC2)c2cc(N3CCN(C(=S)Nc4ccc(C(F)(F)F)cc4)CC3)c(F)cc2c1=O" 1.2
